Data origin, for the record: paper PMC5564600

assayTarget: panel of 442 kinases (Homo sapiens, UniProt Q9NRH2)
Construct: purchased Ambit Biosciences (scanMAXX KINOMEscan)
Sequence (Q9NRH2 1-765): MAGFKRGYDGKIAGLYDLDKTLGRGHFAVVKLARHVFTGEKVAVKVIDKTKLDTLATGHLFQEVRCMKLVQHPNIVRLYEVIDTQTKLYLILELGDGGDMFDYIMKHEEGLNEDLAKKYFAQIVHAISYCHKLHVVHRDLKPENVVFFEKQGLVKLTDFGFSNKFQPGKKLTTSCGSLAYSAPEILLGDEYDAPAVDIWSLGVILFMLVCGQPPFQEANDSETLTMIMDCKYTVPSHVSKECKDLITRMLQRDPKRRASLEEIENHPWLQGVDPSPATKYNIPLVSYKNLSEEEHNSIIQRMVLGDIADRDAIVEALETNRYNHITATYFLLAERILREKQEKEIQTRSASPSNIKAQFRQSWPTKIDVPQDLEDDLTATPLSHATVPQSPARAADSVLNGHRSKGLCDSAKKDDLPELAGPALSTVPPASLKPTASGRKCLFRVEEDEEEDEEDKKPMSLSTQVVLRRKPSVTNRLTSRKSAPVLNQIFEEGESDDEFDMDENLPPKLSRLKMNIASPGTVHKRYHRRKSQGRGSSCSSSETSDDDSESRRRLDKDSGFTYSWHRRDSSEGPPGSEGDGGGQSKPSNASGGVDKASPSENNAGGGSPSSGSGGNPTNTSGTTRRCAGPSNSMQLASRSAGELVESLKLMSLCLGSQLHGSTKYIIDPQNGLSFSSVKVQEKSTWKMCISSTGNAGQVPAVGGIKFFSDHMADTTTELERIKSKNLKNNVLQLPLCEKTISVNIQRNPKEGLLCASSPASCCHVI
method: biochemical
Format: binding
conditionSet: kinase SNRK; 1 µM; read-out: SNRK (% of control at 1 µM)
For each record, write down the corresponding remaining activity at 1 µM.
Value expressed in %; do not type the unit.

Recorded remaining activity at 1 µM for `Nc1cc(C(F)(F)F)c(-c2cc(N3CCOCC3)nc(N3CCOCC3)n2)cn1` , please?
90

Follow-up item: `FC(F)c1nc2ccccc2n1-c1nc(N2CCOCC2)nc(N2CCOCC2)n1`
100

Follow-up item: `Cn1c(=O)n(-c2ccc(C(C)(C)C#N)cc2)c2c3cc(-c4cnc5ccccc5c4)ccc3ncc21`
71

Follow-up item: `COc1ncc(-c2ccc3nccc(-c4ccnnc4)c3c2)cc1NS(=O)(=O)c1ccc(F)cc1F`
88

###

assayTarget: panel of 442 kinases (Homo sapiens, UniProt Q04912)
Construct: purchased Ambit Biosciences (scanMAXX KINOMEscan)
Sequence (Q04912 25-1400): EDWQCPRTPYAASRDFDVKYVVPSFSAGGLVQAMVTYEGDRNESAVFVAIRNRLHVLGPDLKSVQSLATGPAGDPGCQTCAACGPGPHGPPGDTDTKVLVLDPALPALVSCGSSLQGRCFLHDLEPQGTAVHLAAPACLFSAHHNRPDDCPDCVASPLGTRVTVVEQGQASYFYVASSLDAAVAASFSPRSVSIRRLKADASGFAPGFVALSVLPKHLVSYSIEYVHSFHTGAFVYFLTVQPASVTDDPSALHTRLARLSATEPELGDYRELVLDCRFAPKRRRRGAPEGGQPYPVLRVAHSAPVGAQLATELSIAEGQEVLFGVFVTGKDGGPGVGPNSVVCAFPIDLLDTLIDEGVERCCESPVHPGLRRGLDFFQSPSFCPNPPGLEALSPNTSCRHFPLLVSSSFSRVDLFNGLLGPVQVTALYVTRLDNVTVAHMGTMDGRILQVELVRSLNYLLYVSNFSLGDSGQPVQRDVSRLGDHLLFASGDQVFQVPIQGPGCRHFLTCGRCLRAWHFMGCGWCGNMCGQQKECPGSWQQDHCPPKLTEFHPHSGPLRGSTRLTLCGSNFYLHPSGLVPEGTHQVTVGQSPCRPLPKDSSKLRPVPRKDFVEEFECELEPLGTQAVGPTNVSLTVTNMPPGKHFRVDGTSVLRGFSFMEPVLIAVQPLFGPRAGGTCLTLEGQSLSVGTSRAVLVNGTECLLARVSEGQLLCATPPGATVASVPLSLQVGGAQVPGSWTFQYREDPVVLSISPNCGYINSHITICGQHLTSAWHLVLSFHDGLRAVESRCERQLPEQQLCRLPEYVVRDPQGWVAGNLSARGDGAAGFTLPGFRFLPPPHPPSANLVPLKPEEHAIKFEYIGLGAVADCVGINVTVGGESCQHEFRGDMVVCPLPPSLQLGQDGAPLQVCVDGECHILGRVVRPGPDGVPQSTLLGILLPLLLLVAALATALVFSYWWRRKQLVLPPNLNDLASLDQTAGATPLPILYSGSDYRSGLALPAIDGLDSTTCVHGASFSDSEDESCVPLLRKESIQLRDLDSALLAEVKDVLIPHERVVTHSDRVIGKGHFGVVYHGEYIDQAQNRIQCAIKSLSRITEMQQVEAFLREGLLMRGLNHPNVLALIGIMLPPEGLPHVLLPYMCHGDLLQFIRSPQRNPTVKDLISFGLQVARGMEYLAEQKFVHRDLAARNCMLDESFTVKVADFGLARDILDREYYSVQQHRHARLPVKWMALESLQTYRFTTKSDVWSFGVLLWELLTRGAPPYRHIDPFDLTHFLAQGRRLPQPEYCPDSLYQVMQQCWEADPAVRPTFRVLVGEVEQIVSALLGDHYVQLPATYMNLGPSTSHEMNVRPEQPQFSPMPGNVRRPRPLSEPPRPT
method: biochemical
Type: binding
conditionSet: kinase MST1R; 1 µM; read-out: % of control at 1 µM
observationType: remaining activity at 1 µM
A complete answer gives the number and then names the unit.

Recorded remaining activity at 1 µM for Nc1cc(C(F)(F)F)c(-c2cc(N3CCOCC3)nc(N3CCOCC3)n2)cn1 [Buparlisib] , please?
74%

Follow-up item: Cn1c(=O)n(-c2ccc(C(C)(C)C#N)cc2)c2c3cc(-c4cnc5ccccc5c4)ccc3ncc21 [Dactolisib]
60%

Follow-up item: FC(F)c1nc2ccccc2n1-c1nc(N2CCOCC2)nc(N2CCOCC2)n1 [ZSTK474]
92%

Follow-up item: COc1ncc(-c2ccc3nccc(-c4ccnnc4)c3c2)cc1NS(=O)(=O)c1ccc(F)cc1F [Omipalisib]
95%
